tested on: COLO 205 colon; experiment: NCI tumour cell line growth inhibition, 48 h
Recorded TGI for the following molecules
parameter: TGI (µM)

> print(dat)
                                 smilesrepr  experimentalsystem  comparisonoperator  datavalue
1  CC(C)N(Cc1ccc(CN(C(=O)CCl)C(C)C)cc1)C(=O)CCl      COLO 205 colon                   =       4.36
2        CCN(CC)C(=O)Cn1c2c(c3ccccc31)CCCC2      COLO 205 colon                   >        100
3                CN1Cc2ccccc2/C=C\c2ccccc21      COLO 205 colon                   >        100
4  CC(C)OC(=S)Nc1ccc(Cl)c(/C=N/OC(C)(C)C)c1      COLO 205 colon                   =       32.3
5             CS(=O)(=O)OCCCNCCCOS(C)(=O)=O      COLO 205 colon                   =       4540
6  CC(=O)N1CCN(CCNC(=O)n2cc(-c3ccncc3)c(-c3cc(O)cc(Cl)c3)n2)CC1      COLO 205 colon                   =       20.9
7             CCCCN(C)/N=N/c1nc[nH]c1C(N)=O      COLO 205 colon                   >        100
